biological target: Glutamate NMDA receptor; assay: Inhibitory activity by measuring its ability to displace [3H]-MK-801 from glutamate(NMDA) receptor in rat brain
pIC50: −log10 of the molar value.
measurement-type: pIC50

// CCCN(CCC)C(=O)Cc1c(-c2ccccc2)[nH]c2ccccc12 : pIC50 value = < 6.00

// CCCN(CCC)C(=O)Cc1c(-c2ccc(Cl)cc2)[nH]c2ccccc12 : pIC50 value = < 6.00

// CCCN(CCC)C(=O)Cc1c(-c2cccs2)[nH]c2ccc(Cl)cc12 : pIC50 value = < 6.00

---
// CCCN(CCC)C(=O)Cc1c(-c2cccc(Cl)c2)[nH]c2ccccc12 : pIC50 value = < 6.00

// CCCCN(CCCC)C(=O)Cc1c(-c2ccc(F)cc2)[nH]c2ccccc12 : pIC50 value = < 6.00

// CCCCCCCCCCNC(=O)Cc1c(-c2ccccc2)[nH]c2ccccc12 : pIC50 value = < 6.00

// CCCN(CCC)C(=O)Cc1cn(Cc2ccc(Br)cc2)c2ccccc12 : pIC50 value = < 6.00

// O=C(Cc1c(-c2ccccc2)[nH]c2ccccc12)N1CCCCC1 : pIC50 value = < 6.00

// c1ccc(-c2[nH]c3ccccc3c2CC2=NCCN2)cc1 : pIC50 value = < 6.00

// CCCCCCN(CCCCCC)C(=O)Cc1c(-c2ccc(F)cc2)[nH]c2ccc(Cl)cc12 : pIC50 value = < 6.00

// CCCCCCN(CCCCCC)C(=O)Cc1c(-c2ccccc2)[nH]c2ccc(Cl)cc12 : pIC50 value = < 6.00

###

Each entry below carries its recorded IC50.
target: Sigma receptor (Rattus norvegicus); test: Tested for inhibitory activity by measuring its ability to displace [3H]3-PPP from sigma receptor in rat brain

Use these answered entries as a reference point.
Assay Sigma receptor (Rattus norvegicus), sample CCCN(CCC)C(=O)Cc1c(-c2ccc(I)cc2)[nH]c2ccccc12 , IC50 read: > 1000 nM

Assay Sigma receptor (Rattus norvegicus), sample CCCN(CCC)C(=O)Cc1c(-c2ccc(Br)cc2)[nH]c2ccccc12 , IC50 read: > 1000 nM

---
Assay Sigma receptor (Rattus norvegicus), sample CCCCN(CCCC)C(=O)Cc1c(-c2ccc(F)cc2)[nH]c2ccccc12 , IC50 read: > 1000 nM

Assay Sigma receptor (Rattus norvegicus), sample c1ccc(-c2[nH]c3ccccc3c2CC2=NCCN2)cc1 , IC50 read: > 1000 nM

Assay Sigma receptor (Rattus norvegicus), sample CCCCCCN(CCCCCC)C(=O)Cc1c(-c2ccccc2)[nH]c2ccccc12 , IC50 read: > 1000 nM

Assay Sigma receptor (Rattus norvegicus), sample CCCN(CCC)C(=O)Cc1c(-c2ccccc2)[nH]c2cc(F)ccc12 , IC50 read: > 1000 nM

###

biological target: Adrenergic receptor beta (Rattus norvegicus, UniProt P18090+P10608+P26255); experiment: Inhibitory activity by measuring its ability to displace [125I]pindolol from beta-adrenergic receptor in rat brain; type: tissue-based
Each entry below carries its recorded IC50.

Assay Adrenergic receptor beta (Rattus norvegicus, UniProt P18090+P10608+P26255), sample CCCN(CCC)C(=O)Cc1c(-c2ccc(Cl)cc2)n(C)c2ccccc12 , IC50 read: > 1000 nM

Assay Adrenergic receptor beta (Rattus norvegicus, UniProt P18090+P10608+P26255), sample CCCCCCN(CCCCCC)CCc1c(-c2ccc(F)cc2)[nH]c2ccccc12 , IC50 read: > 1000 nM

Assay Adrenergic receptor beta (Rattus norvegicus, UniProt P18090+P10608+P26255), sample O=C(Cc1c(-c2ccccc2)[nH]c2ccccc12)N1CCCC1 , IC50 read: > 1000 nM

Assay Adrenergic receptor beta (Rattus norvegicus, UniProt P18090+P10608+P26255), sample CCCCCCN(CCCCCC)C(=O)Cc1c(-c2ccccc2)[nH]c2ccccc12 , IC50 read: > 1000 nM

Assay Adrenergic receptor beta (Rattus norvegicus, UniProt P18090+P10608+P26255), sample CCCCCCNC(=O)Cc1c(-c2ccccc2)[nH]c2ccccc12 , IC50 read: > 1000 nM

Assay Adrenergic receptor beta (Rattus norvegicus, UniProt P18090+P10608+P26255), sample CCCCCCN(C)C(=O)Cc1c(-c2ccc(F)cc2)[nH]c2ccccc12 , IC50 read: > 1000 nM
